testedOn: Programmed cell death protein 1/Programmed cell death 1 ligand 1 (Homo sapiens, UniProt Q15116+Q9NZQ7)
Sequence (Q15116 whole entry): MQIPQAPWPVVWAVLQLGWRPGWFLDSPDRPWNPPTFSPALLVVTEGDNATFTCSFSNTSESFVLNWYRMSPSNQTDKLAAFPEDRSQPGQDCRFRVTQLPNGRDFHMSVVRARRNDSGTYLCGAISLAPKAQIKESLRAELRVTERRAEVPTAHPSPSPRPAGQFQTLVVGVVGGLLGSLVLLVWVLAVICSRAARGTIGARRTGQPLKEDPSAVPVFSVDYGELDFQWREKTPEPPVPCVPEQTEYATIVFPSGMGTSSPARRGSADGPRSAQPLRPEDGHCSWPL
Sequence (Q9NZQ7 whole entry): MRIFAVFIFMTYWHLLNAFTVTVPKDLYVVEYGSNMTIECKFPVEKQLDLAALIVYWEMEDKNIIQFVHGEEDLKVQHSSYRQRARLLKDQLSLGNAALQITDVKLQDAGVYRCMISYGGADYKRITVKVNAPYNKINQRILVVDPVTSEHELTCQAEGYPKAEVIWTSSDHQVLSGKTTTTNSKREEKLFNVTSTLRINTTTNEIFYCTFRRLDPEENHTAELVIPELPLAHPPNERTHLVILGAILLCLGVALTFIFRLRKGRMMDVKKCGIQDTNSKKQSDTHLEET
measurementProtocol: Inhibition of human PD1/PDL1 protein-protein interaction by HTRF assay
The entries below are paired with their reported IC50.

compound: N#Cc1c(NC(=O)c2ccc(CNCCO)cn2)cccc1-c1ccccc1
IC50: < 10 nM

Respond only with IC50 recorded for `Cc1c(NC(=O)c2cc(CN3CCCC[C@H]3C(=O)O)cn(C)c2=O)cccc1-c1ccccc1`
< 100 nM

Output IC50 of `Cc1c(COc2cc(OCc3cncc(C#N)c3)c(CN(C)C(CO)(CO)CO)cc2Cl)cccc1-c1cccc(OCCCN2CCC(F)(F)C2)c1C`
0.5 nM

Indicate the recorded IC50 value for this compound: `Cc1c(COc2cc(OCc3cncc(C#N)c3)c(CN(C)C(C)(CO)CO)cc2Cl)cccc1-c1ccnc(OCCCN2CCCCC2)c1Cl`
< 10 nM

Tell us which IC50 value is on record for Cc1c(/C=C/c2cc(CNC(C)(CO)C(=O)O)ccc2C(F)(F)F)cccc1-c1ccc2c(c1)OCCO2 (stereo unspecified)
18 nM

Look up and state reported IC50 for `N#Cc1cccc(COc2cc(OCc3cccc(-c4ccccc4)c3Br)c(Cl)cc2CN2CCCC[C@H]2C(=O)O)c1`
800000 nM
